- Test system: H3K79 methylation in MOLM-13 cells
- Run Description: Cellular H3K79 methylation analysis (histone immunoblot) in MOLM-13 cells
- Type: cell-based, human
- Condition Summary: Homo sapiens, MOLM-13, read-out: H3K79 IC50 MOLM-13 cells
Structures can show the parent of a compound that is named as a salt.
Measurement Kind: IC50 (nM)
Numeric only. Scale: nM

response.value for CC(C)N(CCCNC(=O)Nc1ccc(C(C)(C)C)cc1)C[C@H]1O[C@@H](n2ccc3c(N)ncnc32)[C@H](O)[C@@H]1O [Compound 17, hydrochloride] (field: IC50) = 59

###

- System: H3K79 methylation in MOLM-13 cells
- Run Description: Cellular H3K79 methylation analysis (histone immunoblot) in MOLM-13 cells
- Format: cell-based, human
- Condition Summary: MOLM-13 cells; read-out: H3K79 IC50 MOLM-13 cells
Where a name gives a salt, the structure may show the parent alone.
Measurement Kind: IC50 (µM)
Numeric only. Scale: µM

response.value for CN(CCCNC(=O)Nc1ccc(C(C)(C)C)cc1)CC1O[C@@H](n2ccc3c(N)ncnc32)[C@H](O)[C@@H]1O (stereo partly shown) [Compound 9, hydrochloride] (field: IC50) = 0.077

###

- System: MOLM-13 cells
- Run Description: Cell growth and viability / proliferation, MOLM-13 cells
- Format: cell-based, human
- Condition Summary: Homo sapiens, MOLM-13, read-out: Proliferation IC50 MOLM-13 cells
Counter-ions that a name gives are not always drawn.
Measurement Kind: IC50 (µM)
Numeric only. Scale: µM

response.value for CC(C)N(CCCNC(=O)Nc1ccc(C(C)(C)C)cc1)C[C@H]1O[C@@H](n2ccc3c(N)ncnc32)[C@H](O)[C@@H]1O [Compound 17, hydrochloride] (field: IC50) = 3.2

###

- System: DOT1L(1-416) (Homo sapiens (Human))
- Sequence (Q8TEK3 1-416): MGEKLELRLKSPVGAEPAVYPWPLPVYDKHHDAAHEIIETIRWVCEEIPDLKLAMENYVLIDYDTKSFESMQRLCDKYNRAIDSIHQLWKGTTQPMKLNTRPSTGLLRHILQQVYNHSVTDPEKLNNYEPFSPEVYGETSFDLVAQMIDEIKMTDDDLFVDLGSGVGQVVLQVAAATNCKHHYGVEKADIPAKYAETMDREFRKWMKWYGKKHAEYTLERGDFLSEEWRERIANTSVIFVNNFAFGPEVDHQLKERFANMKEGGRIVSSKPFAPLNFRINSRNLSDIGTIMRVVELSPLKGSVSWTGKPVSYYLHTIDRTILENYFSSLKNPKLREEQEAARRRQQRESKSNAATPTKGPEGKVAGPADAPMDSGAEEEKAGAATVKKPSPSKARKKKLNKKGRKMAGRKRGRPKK
pIC50: −log10 of the molar value.
Measurement Kind: pIC50

response.value for "CC(=O)N(CCCNC(=O)Nc1ccc(C(C)(C)C)cc1)C[C@H]1O[C@@H](n2ccc3c(N)ncnc32)[C@H](O)[C@@H]1O" (field: pIC50) = > 6.00
